Where these numbers come from: the supplement of paper PMC10627819

Reported fitness values are given for each entry in this list.
# Tested on: S. aureus Newman;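 also: OD595 on entry to stationary phase over no-drug wells; at most 1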
# Assay Name: fitness (endpoint OD595 vs no drug) (fraction); higher = more growth
# Measurement Parameters: first compound 0.075 µg/mL; partner 0.25 µg/mL
Assay Endpoint: fitness

compound="O=C(O)c1cn(C2CC2)c2cc(N3CCNCC3)c(F)cc2c1=O [Ciprofloxacin] + CC1=C\\[C@@H](O)CC(=O)Cc2nc(co2)C(=O)N2CCC=C2C(=O)O[C@H](C(C)C)[C@H](C)/C=C/C(=O)NC\\C=C\\1 [Virginiamycin M1]" result_number=0.703
compound="O=C(O)c1cn(C2CC2)c2cc(N3CCNCC3)c(F)cc2c1=O [Ciprofloxacin] + CC1=C(C(=O)O)N2C(=O)[C@@H](NC(=O)[C@H](N)c3ccccc3)[C@H]2SC1 [Cephalexin]" result_number=0.727
compound="O=C(O)c1cn(C2CC2)c2cc(N3CCNCC3)c(F)cc2c1=O [Ciprofloxacin] + Cn1nnc(-c2ccc(-c3ccc(N4C[C@H](CO)OC4=O)cc3F)cn2)n1 [Tedizolid]" result_number=0.423
compound="O=C(O)c1cn(C2CC2)c2cc(N3CCNCC3)c(F)cc2c1=O [Ciprofloxacin] + CO/N=C(\\C(=O)N[C@@H]1C(=O)N2C(C(=O)[O-])=C(C[N+]3(C)CCCC3)CS[C@H]12)c1csc(N)n1 [Cefepime]" result_number=0.667

###

# Tested on: B. subtilis 168;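 also: first quartile when negative (synergy) and third quartile when positive (antagonism)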
# Assay Name: Bliss interaction score (quartile over a dose matrix) (fitness difference); higher = more antagonism (negative = synergy)
Rule: MET for Bliss interaction score not less than 0.1, NOT MET for anything less.

compound="C[C@@H]1O[C@@H]1P(=O)(O)O [Fosfomycin] + CC(=O)NC[C@H]1CN(c2ccc(N3CCOCC3)c(F)c2)C(=O)O1 [Linezolid]" target_entity="B. subtilis 168" label_class=MET
compound="CC1(C)S[C@@H]2[C@H](NC(=O)Cc3ccccc3)C(=O)N2[C@H]1C(=O)O [PenicillinG] + COc1ccc(C[C@H](N)C(=O)N[C@H]2[C@@H](O)[C@H](n3cnc4c(N(C)C)ncnc43)O[C@@H]2CO)cc1 [Puromycin]" target_entity="B. subtilis 168" label_class="NOT MET"
compound="Cc1ncc([N+](=O)[O-])n1CCO [Metronidazole] + CO[C@@]12[C@H](COC(N)=O)C3=C(C(=O)C(C)=C(N)C3=O)N1C[C@@H]1N[C@@H]12 [MitomycinC]" target_entity="B. subtilis 168" label_class=MET
compound="CO/N=C(\\C(=O)N[C@@H]1C(=O)N2C(C(=O)O)=C(COC(N)=O)CS[C@H]12)c1ccco1 [Cefuroxime] + Clc1ccc(COC(Cn2ccnc2)c2ccc(Cl)cc2Cl)c(Cl)c1 [Miconazole]" target_entity="B. subtilis 168" label_class="NOT MET"
compound="CO/N=C(\\C(=O)N[C@@H]1C(=O)N2C(C(=O)O)=C(COC(N)=O)CS[C@H]12)c1ccco1 [Cefuroxime] + Oc1cc(Cl)ccc1Oc1ccc(Cl)cc1Cl [Triclosan]" target_entity="B. subtilis 168" label_class="NOT MET"

###

# Tested on: B. subtilis 168;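 also: first quartile when negative (synergy) and third quartile when positive (antagonism)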
# Assay Name: Bliss interaction score (quartile over a dose matrix) (fitness difference); higher = more antagonism (negative = synergy)
The following compounds are listed with their measured Bliss interaction score values.
Assay Endpoint: Bliss interaction score

compound="CC(=O)Oc1ccccc1C(=O)O [Acetylsalicylicacid] + C[C@@H]1O[C@@H]1P(=O)(O)O [Fosfomycin]" result_number=-0.291
compound="COc1cccc2c1C(=O)c1c(O)c3c(c(O)c1C2=O)C[C@@](O)(C(=O)CO)C[C@@H]3O[C@H]1C[C@H](N)[C@H](O)[C@H](C)O1 [Doxorubicin] + Oc1cc(Cl)ccc1Oc1ccc(Cl)cc1Cl [Triclosan]" result_number=-0.0317
compound="CO/N=C(\\C(=O)N[C@@H]1C(=O)N2C(C(=O)O)=C(COC(N)=O)CS[C@H]12)c1ccco1 [Cefuroxime] + Cc1cc(NS(=O)(=O)c2ccc(N)cc2)no1 [Sulfamethoxazol]" result_number=-0.0536
compound="C[C@@H]1O[C@@H]1P(=O)(O)O [Fosfomycin] + COc1c(N2C[C@@H]3CCCN[C@@H]3C2)c(F)cc2c(=O)c(C(=O)O)cn(C3CC3)c12 [Moxifloxacin]" result_number=-0.0148
compound="O=C(O)c1cn(C2CC2)c2cc(N3CCNCC3)c(F)cc2c1=O [Ciprofloxacin] + CN(C)C(=O)C(CCN1CCC(O)(c2ccc(Cl)cc2)CC1)(c1ccccc1)c1ccccc1 [Loperamide]" result_number=0.199
compound="N#CC(C#N)=NNc1cccc(Cl)c1 [CCCP] + C[C@@H](O)[C@H]1C(=O)N2C(C(=O)O)=C(SCCNC=N)C[C@H]12 [Imipenem]" result_number=-0.0769
compound="N#CC(C#N)=NNc1cccc(Cl)c1 [CCCP] + Oc1cc(Cl)ccc1Oc1ccc(Cl)cc1Cl [Triclosan]" result_number=0.0443
compound="N#CC(C#N)=NNc1cccc(Cl)c1 [CCCP] + N[C@@H]1CONC1=O [CycloserineD]" result_number=0.0617
compound="CN(C)c1cc(NC(=O)CNC(C)(C)C)c(O)c2c1C[C@H]1C[C@H]3[C@H](N(C)C)C(O)=C(C(N)=O)C(=O)[C@@]3(O)C(O)=C1C2=O [Tigecycline] + COc1cc(Cc2cnc(N)nc2N)cc(OC)c1OC [Trimethoprim]" result_number=0.121
compound="CO/N=C(\\C(=O)N[C@@H]1C(=O)N2C(C(=O)O)=C(COC(N)=O)CS[C@H]12)c1ccco1 [Cefuroxime] + CC1(C)S[C@@H]2[C@H](NC(=O)Cc3ccccc3)C(=O)N2[C@H]1C(=O)O [PenicillinG]" result_number=-0.0758
compound="Cc1ncc([N+](=O)[O-])n1CCO [Metronidazole] + CO[C@H]1/C=C/O[C@@]2(C)Oc3c(C)c(O)c4c(O)c(c(/C=N/N5CCN(C)CC5)c(O)c4c3C2=O)NC(=O)/C(C)=C\\C=C\\[C@H](C)[C@H](O)[C@@H](C)[C@@H](O)[C@@H](C)[C@H](OC(C)=O)[C@@H]1C [Rifampicin]" result_number=0.0335
